Attribution: patent US9650382B2

The following molecules are listed with their measured Relative LUC activity (%) in W741L AR in relation to BIC (100%) values.
# Target entity: W741L AR (Homo sapiens, UniProt P10275, W742L)
# Construct: expressed in transfected cells; host or cells: COS-1 cells
# Sequence (P10275 whole entry W742L): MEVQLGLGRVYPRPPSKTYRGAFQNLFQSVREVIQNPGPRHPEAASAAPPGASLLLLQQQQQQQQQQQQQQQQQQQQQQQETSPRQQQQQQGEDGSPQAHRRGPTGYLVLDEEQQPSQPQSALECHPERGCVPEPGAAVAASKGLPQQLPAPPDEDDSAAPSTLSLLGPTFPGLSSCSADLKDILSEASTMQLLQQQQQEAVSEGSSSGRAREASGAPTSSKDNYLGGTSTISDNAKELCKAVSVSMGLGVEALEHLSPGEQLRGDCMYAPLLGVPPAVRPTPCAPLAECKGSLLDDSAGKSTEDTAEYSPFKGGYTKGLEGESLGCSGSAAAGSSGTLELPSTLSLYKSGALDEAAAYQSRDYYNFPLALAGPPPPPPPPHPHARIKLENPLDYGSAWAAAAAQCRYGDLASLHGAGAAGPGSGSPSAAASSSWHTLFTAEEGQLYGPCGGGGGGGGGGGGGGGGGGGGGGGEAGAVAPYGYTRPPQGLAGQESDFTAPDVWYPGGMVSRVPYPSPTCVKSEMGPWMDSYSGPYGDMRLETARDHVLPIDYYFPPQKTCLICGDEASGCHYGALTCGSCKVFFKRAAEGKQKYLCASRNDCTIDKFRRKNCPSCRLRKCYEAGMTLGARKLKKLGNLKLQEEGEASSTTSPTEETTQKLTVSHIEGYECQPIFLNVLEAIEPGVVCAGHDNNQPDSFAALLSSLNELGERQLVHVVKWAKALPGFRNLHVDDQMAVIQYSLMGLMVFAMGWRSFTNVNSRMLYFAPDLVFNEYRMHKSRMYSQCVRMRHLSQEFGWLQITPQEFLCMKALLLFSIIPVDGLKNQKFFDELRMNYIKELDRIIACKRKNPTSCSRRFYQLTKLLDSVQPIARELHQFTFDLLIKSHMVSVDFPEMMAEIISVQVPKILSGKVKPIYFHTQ
# Assay summary: Agonism in W741L mutant AR, AR transactivation assay in COS-1 cells, test compounds alone
# Assay type: cell-based
# Test settings: 10 microM; compound alone
Respond with the bare value in %.

# example entries with known answers
N#Cc1ccc(NC(=O)C(O)(CS(=O)(=O)c2ccc(Cl)cc2)c2ccc(Cl)nc2)cc1Cl (centres unmarked)    23
CCS(=O)(=O)CC(O)(C(=O)Nc1ccc(C#N)c(C(F)(F)F)c1)c1ccc(Cl)nc1 (centres unmarked)    6
N#Cc1ccc(NC(=O)C(O)(CS(=O)(=O)Cc2ccc(Cl)cc2)c2ccc(Cl)nc2)cc1Cl (centres unmarked)    4

Problem: // returns reported Relative LUC activity (%) in W741L AR in relation to BIC (100%) for input CC(C)S(=O)(=O)CC(O)(C(=O)Nc1ccc(C#N)c(C(F)(F)F)c1)c1ccc(Cl)nc1 (centres unmarked)
Result: 3

Problem: Another molecule to check: CC(C)CCS(=O)(=O)CC(O)(C(=O)Nc1ccc(C#N)c(C(F)(F)F)c1)c1ccc(Cl)nc1 (centres unmarked)
Result: 31
